Tested on: Plasmodium berghei
Assay: Screen against P. berghei liver stage (PbLuc), transformed with Luciferase, at 10uM
Assay type: functional, HepG2
Conditions: tested at 10 uM
The whole screen tested about 69,000 compounds, of which about 8,600 (12%) showed an effect of 50% or more. The full list was thinned out, with strong results kept by preference.
Respond with true for INHIBITION values of 40% and above, false for values below.

Answered cases to consult:
Compound | Cat
Clc1ccc2[nH]c3c(c2c1)CCCC3c1nn[nH]n1 (stereo not given) | false
CCn1cc(CN2CCCC(c3[nH]ncc3-c3ccc(F)cc3)C2)cn1 (stereo not given) | false
CO[C@H]1CCN(Cc2cnn(C)c2)[C@@H]2CN(Cc3ccncc3)C[C@H]12 | false
CCNc1cc2c(nn1)CCN(C(=O)c1c(C)noc1C)C2 | false
COc1cc(OC)cc(C(=O)N(C)Cc2nnc3ccccn23)c1 | false

# check: INHIBITION of CCc1nc(CNc2ccc(C(=O)N3CCSCC3)cc2C)no1 is greater than or equal to 40%
false
